measure: melting point

CC(=O)Nc1ccc(N2C(=O)N(c3ccc(C#N)c(C(F)(F)F)c3)C(=O)C2(C)CO)cc1 (centres unmarked)	124 to 126 °C
CN1CCC(Oc2ccc(N3C(=S)N(c4cnc(C#N)c(C(F)(F)F)c4)C(=O)C3(C)CO)cc2)CC1 (centres unmarked) [19d]	119 to 121 °C
CC1(CO)C(=O)N(c2cnc(C#N)c(C(F)(F)F)c2)C(=S)N1c1ccccc1 (centres unmarked) [19a]	203 to 205 °C
CC1(CO)C(=O)N(c2ccc(C#N)c(C(F)(F)F)c2)C(=O)N1c1ccccc1 (centres unmarked)	187 to 189 °C
CN1CCC(Oc2ccc(N3C(=S)N(c4ccc(C#N)c(C(F)(F)F)c4)C(=O)C3(C)CO)cc2)CC1 (centres unmarked)	117 to 119 °C

Problem: What does the data say about its melting point? Entry: COc1ccc(N2C(=S)N(c3ccc(C#N)c(C(F)(F)F)c3)C(=O)C2(C)CO)cc1 (centres unmarked)
Result: 183 to 185 °C

Problem: Repeat for the following molecule: CC1(CO)C(=O)N(c2ccc(C#N)c(C(F)(F)F)c2)C(=O)N1c1ccc(F)cc1 (centres unmarked)
Result: 208 to 210 °C

Problem: Repeat for the following molecule: CC1(CO)C(=O)N(c2ccc(C#N)c(C(F)(F)F)c2)C(=O)N1c1ccc(C(F)(F)F)cc1 (centres unmarked)
Result: 161 to 163 °C
